From: patent US20050137135A1

Listed below: % Displacement at 10 µM values for each entry.
Target: T1, rat pancreatic islet (wild type) GIP-receptor stably expressed on CHO-K1 cells (rat, UniProt P43219 19-455)
T1 construct: whole, on cells; also called wtGIPR cells; wtGIP-R1 cells
T1 sequence (looked up): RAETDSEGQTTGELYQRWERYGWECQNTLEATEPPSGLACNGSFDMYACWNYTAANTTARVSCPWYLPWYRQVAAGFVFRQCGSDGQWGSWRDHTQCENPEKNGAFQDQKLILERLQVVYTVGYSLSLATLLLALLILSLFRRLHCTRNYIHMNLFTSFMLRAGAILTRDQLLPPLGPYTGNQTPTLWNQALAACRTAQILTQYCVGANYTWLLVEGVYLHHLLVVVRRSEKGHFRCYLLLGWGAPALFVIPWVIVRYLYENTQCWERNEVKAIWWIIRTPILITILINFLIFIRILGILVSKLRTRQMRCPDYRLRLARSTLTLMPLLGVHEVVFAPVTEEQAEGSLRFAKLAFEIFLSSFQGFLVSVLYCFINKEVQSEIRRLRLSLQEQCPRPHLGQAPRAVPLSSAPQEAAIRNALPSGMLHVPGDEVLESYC
Test: displacement of 125I-GIP from intact CHO-K1 cells expressing rat GIP receptor, 10 µM peptide
Ends that are not written are not given here.

{"binder": "YAEGTFISDYSIAM-OH (peptide, UniProt P09681 52-65, looked up, range 1-14; free acid form; also called native GIP (1-14)) [GIP 1-14OH]", "% Displacement at 10 µM / %": 51.3}
{"binder": "IRQQDFVNWLLAQK-NH2 (peptide, UniProt P01281 17-30, looked up, range 17-30; also called GIP17-30a) [GIP 17-30NH2]", "% Displacement at 10 µM / %": 81.9}
{"binder": "QQDFVNWLLAQK-NH2 (peptide, UniProt P09681 70-81, looked up, range 19-30; also called GIP19-30a) [GIP 19-30NH2]", "% Displacement at 10 µM / %": 52.3}
{"binder": "YAEGTFISDYSIA-NH2 (peptide, UniProt P09681 52-64, looked up, range 1-13) [GIP 1-13NH2]", "% Displacement at 10 µM / %": 5}
{"binder": "DKIRQQDFVNWLLAQK-NH2 (peptide, UniProt P01281 15-30, looked up, range 15-30; also called GIP15-30a) [GIP 15-30NH2]", "% Displacement at 10 µM / %": 82.7}
{"binder": "YAEGTFISDYSIAM-NH2 (peptide, UniProt P09681 52-65, looked up, range 1-14) [GIP 1-14NH2]", "% Displacement at 10 µM / %": 27.9}
